The measured values listed here are drawn from patent US10494439.

# experimentalTarget: Y436T
# method: SPR
pKd: −log10 of the molar value.
endpointLabel: pKd

>>> print(df.to_string())
                            binder  result
0  GQNDTSQTSSPS [CD52 peptide 741]    8.71
